Recorded TGI values for a group of compounds are listed next.
# System: CAKI-1 renal
# procedure summary: NCI tumour cell line growth inhibition, 48 h
assay endpoint: TGI (µM)

1) O=C1OI(C#Cc2ccccc2)c2ccccc21 :: 6.5
2) C/C(=C\Cc1cc(O)ccc1O)CCc1c(C)cc(O)c(C=O)c1C :: 63.5
3) CN(C)C/C=C/C(=O)Nc1ccc(C(=O)N2CCC[C@@H](Nc3ncc(Cl)c(-c4c[nH]c5ccccc45)n3)C2)cc1 :: 12.1
4) Cc1n(Cc2ccc3ccccc3c2)c(Cl)c(Cl)[n+]1Cc1ccc2ccccc2c1 :: 4.67
5) COc1cc([C@H]2c3[nH]c4ccccc4c3C[C@H]3COC(=O)N32)cc(OC)c1O :: 46.8
6) CC(=O)O[C@H]1C(=O)N(c2cc3c4ccccc4ccc3c3ccccc23)[C@@H]1c1ccccc1 :: 35.5
7) C=C[C@@](C)(/C=C/c1ccc(O)cc1)CCC=C(C)C :: 32.6
8) Cc1c(C(=O)OCc2ccccc2)[n+](=O)c2cc(F)c(F)cc2n1[O-] :: 3.92
9) NC(=O)C1=CC2C3C=CC2(O)C(=O)OC3O1 (stereo not drawn) :: 17
10) COC(=O)n1c(C[P+](c2ccccc2)(c2ccccc2)c2ccccc2)cc2ccccc21 :: 7.15
11) CC1(C)CC(=O)c2c(oc3cc(O)c(O)cc23)C1 :: 76.6
12) C=CC(=O)Nc1cccc(Nc2nc(Nc3ccc(OCCOC(F)F)cc3)ncc2F)c1 :: 10.1
13) COc1ccccc1/C=C\C(=O)c1ccccc1 :: 12.2

* * *

# Tested on: ACHN renal
# procedure summary: NCI tumour cell line growth inhibition, 48 h
Recorded TGI values for a group of molecules are listed next.
assay endpoint: TGI

1. COc1ccc2c(c1)nc1n2C(c2ccc(F)cc2)SC1 (configuration not stated) :: 47.3 µM
2. O=[N+]([O-])C1C2C=CC(C2)[C@H]1c1ccc(Cl)cc1Cl (some centres not stated) :: > 100 µM
3. CCCCCCCCCC(=O)Oc1cccc2onc(C)c12 :: > 100 µM
4. COc1ccc(C2ONC3=NCCN32)cc1 (configuration not stated) :: > 100 µM
5. COc1ccc(CC2=NCCc3cc(OC)c(OC)cc32)cc1Br :: > 100 µM
6. N#CCCC1(CCC#N)CCCCCCC(CCC#N)(CCC#N)C(O)C1O (configuration not stated) :: > 100 µM
7. COC(=O)c1cc2c3c(ccc2[nH]1)N(C(=O)c1cc2c4c(ccc2[nH]1)N(C(=O)c1cc2c5c(ccc2[nH]1)N(C(N)=O)CC5)CC4)CC3 :: > 27.8 µM
8. O=S1(=O)OCCOS(=O)(=O)C1Cc1nc2ccccc2[nH]1 :: > 100 µM
9. O=C1CSC2(CC(/C=C/c3ccccc3Br)=NN2c2cccc(S(=O)(=O)O)c2)N1c1nc2ccccc2s1 (configuration not stated) :: > 100 µM
10. COc1ccc(-c2nc3c(c(=O)n2C(C)=O)C(c2ccc(Cl)cc2)c2sc4c(Cl)cccc4c2O3)cc1 (configuration not stated) :: 4.51 µM
11. CO[P@]1(=O)O[C@@H](c2ccccc2)[C@H](O)[C@@]1(O)c1ccccc1 :: > 100 µM
12. CC(C)C1CC(CO)(CNc2cc(Cl)nc(N)n2)C1 (configuration not stated) :: > 100 µM
13. COC(=O)c1c(OC)cc2cc3c(c(O)c2c1C)C(=O)C1(O)C(=O)C=C(OC)C(OC(=O)CC(C)N)=C1C3=O (configuration not stated) :: > 100 µM
14. C=CC(=O)Nc1cccc(Nc2nc(Nc3ccc(OCCOC(F)F)cc3)ncc2F)c1 :: 10.4 µM
15. CNc1ccc(S(=O)Nc2ccccc2)cc1 (configuration not stated) :: > 100 µM
16. CN(C)C/C=C/C(=O)Nc1ccc(C(=O)N2CCC[C@@H](Nc3ncc(Cl)c(-c4c[nH]c5ccccc45)n3)C2)cc1 :: 12.7 µM
17. CC(C)(C)[Si](C)(C)OCC1OC(n2cnc3c(N)ncnc32)C(O)C1O (configuration not stated) :: > 100 µM
18. O=C(OCc1ccccc1C1CSCSC1)c1cc(C(=O)OCc2ccccc2C2CSCSC2)c(C(=O)OCc2ccccc2C2CSCSC2)cc1C(=O)OCc1ccccc1C1CSCSC1 :: > 100 µM
19. COC(=O)C1(F)C(=O)NC(=O)NC1OC (configuration not stated) :: > 100 µM
20. COC(=O)n1c(C[P+](c2ccccc2)(c2ccccc2)c2ccccc2)cc2ccccc21 :: 14.9 µM
21. CCOc1ccc(-c2oc(/C=N/NS(=O)(=O)c3ccc(C)cc3)c([N+](=O)[O-])c2-c2ccc(OCC)cc2)cc1 :: 23.7 µM
22. CC1(C)COC(c2c(-c3ccccc3)noc2CS(=O)c2ccccc2)=N1 (configuration not stated) :: > 100 µM
23. CC(c1ccccc1)N1CC(C)(c2ccccc2)N(O)C(c2ccccc2)C1C (configuration not stated) :: 45.4 µM
24. COc1ccc(C=Nc2ccc(-c3nc4ccccc4[nH]3)cc2)cc1OC :: > 100 µM
25. C=C1CC(Cn2cc(Br)c(=O)[nH]c2=O)(c2ccc(-c3ccccc3)cc2)OC1=O (configuration not stated) :: 3.24 µM
26. CC/C(Cl)=N\OC(=O)Nc1ccc(F)cc1F :: 3.78 µM
27. O=C(Nc1ccccc1O)c1ccc(CNC(=O)c2ccsc2Nc2ccnc(C(F)(F)F)c2)cc1 :: 10.3 µM
28. CN(C)C(=O)SC1=C(c2c(Cl)cccc2Cl)C(=O)c2ccccc21 :: 5.03 µM
29. Oc1[nH]c2ccccc2c1/C=c1/cc2c(c(-c3ccc(C(F)(F)F)cc3)n1)=Nc1ccccc1-2 :: 11.5 µM
30. CCOC(=O)c1nc2ccccc2nc1NCc1ccc(Cl)cc1Cl :: > 100 µM
31. CC12CC(c3ccccc3O1)C(C(=O)Nc1cccc(F)c1)C(=O)N2 (configuration not stated) :: > 100 µM
32. Cc1cc([N+](=O)[O-])c(S(=O)(=O)c2ccccc2)c([N+](=O)[O-])c1 :: 33.4 µM
33. COc1ccc(C(=O)C[C@]2(O)C(=O)Nc3c(Cl)ccc(Cl)c32)cc1 :: > 100 µM
34. O=P(O)(O)CN1CCNCCN(CP(=O)(O)O)CCNCC1 :: > 100 µM
35. COC(=O)CC(NC(=O)OCc1ccccc1)C(C(=O)OCc1ccccc1)C1(C)OCCO1 (configuration not stated) :: > 100 µM
36. CNc1ccc(Cl)cc1S(=O)(=O)c1ccccc1[N+](=O)[O-] :: > 100 µM
37. COc1cc2cc(C(=O)N3CC(CCl)c4c3cc([N+](C)(C)Cc3ccc([N+](=O)[O-])n3C)c3ccccc43)[nH]c2c(OC)c1OC (configuration not stated) :: > 100 µM
38. Fc1c[c-]c(-c2ccccn2)c(F)c1.[CH3-].[Pt+2].c1ccc(P(C[PH+](c2ccccc2)c2ccccc2)c2ccccc2)cc1 :: 1.49 µM
39. Cc1ccc(/C=C2\CN(C)CC3C2=NC(=S)NC3c2ccc(C)cc2)cc1 (configuration not stated) :: > 100 µM
40. CC(=O)c1ccc(NC(=O)CSc2nc(C)nc3c2sc(=S)n3-c2ccccc2)cc1 :: > 3.16 µM
41. O=C1OI(C#Cc2ccccc2)c2ccccc21 :: 5.42 µM
42. CC(=O)CC1(C)OC(N)=C(C#N)C1(C#N)C#N (configuration not stated) :: > 100 µM

* * *

# Tested on: UO-31 renal
# procedure summary: NCI tumour cell line growth inhibition, 48 h
Recorded GI50 values for a group of molecules are listed next.
assay endpoint: GI50

1) O=C(Nc1ccc(Cl)cc1)Nc1ccccc1CNc1nc(Nc2ccc(OCCN3CCCC3)cc2)ncc1Cl :: 0.782 µM
2) O=c1[nH]c2cc(Cl)c(Cl)cc2n2cc3ccccc3c12 :: 17.9 µM
3) CCC(=O)c1cc([N+](=O)[O-])c(Br)s1 :: 1.59 µM
4) CN(C)C/C=C/C(=O)Nc1ccc(C(=O)N2CCC[C@@H](Nc3ncc(Cl)c(-c4c[nH]c5ccccc45)n3)C2)cc1 :: 9.84 µM
5) COC(=O)[C@H](Cc1ccccc1)NC(=O)c1csc([C@@H](C[C@H](C(C)C)N(C)C(=O)[C@@H](NC(=O)[C@H]2CCCN2C)C2CC2)OC(C)=O)n1 :: 2.17 µM
6) Cc1ccc(-n2c3c(c4c(CN5CCOCC5)c(O)ccc42)CCc2ccccc2C3=O)cc1 :: > 100 µM
7) COc1cc2cc(Oc3ccc(NC(=O)c4cccc5c4OCCO5)cc3)c(C)nc2cc1OC :: 4.17 µM
8) C1=C2CNCC3=Cc4ccc5ccccc5c4OC23Oc2c1ccc1ccccc21 :: 3.54 µM

* * *

Recorded TGI values for a group of compounds are listed next.
# System: OVCAR-4 ovarian
# procedure summary: NCI tumour cell line growth inhibition, 48 h
assay endpoint: TGI

1. CCCCCCOP(=O)(OCCCCCC)OC(C(=O)OC)C(F)(F)F (stereo not given) :: > 100 µM
2. c1cnc2[nH]cc(-c3csc(-c4cn(CCCN5CCCCC5)c5ccccc45)n3)c2c1 :: 4.19 µM
3. OC12CCCCCC1(N1CCOCC1)c1ccccc12 (stereo not given) :: > 100 µM
4. O=C(Nc1ccccc1O)c1ccc(CNC(=O)c2ccsc2Nc2ccnc(C(F)(F)F)c2)cc1 :: > 100 µM
5. CC(C)=CCC[C@@H](C)c1c2[nH]c3ccccc3sc-2c(C)c(=O)c1=O :: > 75 µM
6. COc1ccc2[nH]c3c(=O)[nH]ncc3c2c1 :: > 100 µM
7. O=C1CSc2nnc(CCCCCCCCc3nnc4n3NC(=O)CS4)n2N1 :: > 100 µM
8. COC(=O)C1(F)C(=O)NC(=O)NC1OC (stereo not given) :: > 100 µM
9. COC(=O)/C=C/c1ccc2c(c1)CC1(Cc3ccccc3C1)C2 :: > 100 µM
10. C[C@@H]1C/C=C\C(=O)O[C@H](/C=C/C#C/C=C/C(C)(C)[C@@H](O)c2cccc(O)c2Br)[C@@H](C)/C=C/[C@H](C)C[C@H](OC(N)=O)C1 :: 22 µM

These data points were gathered from PubChem BioAssay (NCI).
